Listing of recorded MIC by entry.
Tested on: Escherichia coli
Assay: Antibacterial activity against Escherichia coli MC4100 assessed as reduction in bacterial growth by CLSI based broth microdilution method
Format: functional
reportedMetric: MIC (µg/mL)

| molecule | targetOfAssay | reportedMetric | u | val |
| --- | --- | --- | --- | --- |
| C[C@H]1CC[C@]2(NC1)O[C@H]1C[C@H]3[C@@H]4CC[C@H]5CC(NCCN6CCCC6)CC[C@]5(C)[C@H]4CC[C@]3(C)[C@H]1[C@@H]2C (mixture of isomers) | Escherichia coli | MIC | µg/mL | 64 |
| C[C@H]1CC[C@]2(NC1)O[C@H]1C[C@H]3[C@@H]4CC[C@H]5CC(NC[C@@H](N)Cc6c[nH]c7ccccc67)CC[C@]5(C)[C@H]4CC[C@]3(C)[C@H]1[C@@H]2C (mixture of isomers) | Escherichia coli | MIC | µg/mL | 16 |
| C[C@H]1CC[C@]2(NC1)O[C@H]1C[C@H]3[C@@H]4CC[C@H]5CC(NC[C@@H](N)Cc6ccccc6)CC[C@]5(C)[C@H]4CC[C@]3(C)[C@H]1[C@@H]2C (mixture of isomers) | Escherichia coli | MIC | µg/mL | 32 |
| C[C@H]1CC[C@]2(NC1)O[C@H]1C[C@H]3[C@@H]4CC[C@H]5CC(NC[C@@H](N)Cc6ccc7ccccc7c6)CC[C@]5(C)[C@H]4CC[C@]3(C)[C@H]1[C@@H]2C (mixture of isomers) | Escherichia coli | MIC | µg/mL | 16 |

Ref: ChEMBL document CHEMBL5634158
